Assay Notes: Aggregation after dialysis of purified polypeptide solution
Format: physicochemical
Design: key: G: The formation of an aggregate was not observed.; A: The formation of particles having a particle size of about 100 nm was observed.; B: The formation of an aggregation of particles having a particle size of equal to or greater than 1 mm was visually observed
Measure: Aggregation

>>> readout_value("RCP-8: recombinant polypeptide for culture, SEQ ID NO: 22; vitronectin positions 1-55, 269-373, 374-379, C274S (protein, Vitronectin-derived Recombinant Protein (RCP-8), vitronectin positions 1-55, 269-373, 374-379, C274S) MDQESCKGRCTEGFNVDKKCQCDELCSYYQSCCTDYTAECKPQVTRGDVFTMPEDESQEESEGSSLSAVFEHFAMMQRDSWEDIFELLFWGRTSAGTRQPQFISRDWHGVPGQVDAAMAGRIYISGMAPRPSLAKKQRFRHRNRKGYRSQRGHSRGRNQNSRRPSR")
"A"
>>> readout_value("RCP-3: recombinant polypeptide for culture, SEQ ID NO: 17; vitronectin positions 1-55, 322-341, 342-373 (protein, Vitronectin-derived Recombinant Protein (RCP-3)) MDQESCKGRCTEGFNVDKKCQCDELCSYYQSCCTDYTAECKPQVTRGDVFTMPEDEGVPGQVDAAMAGRIYISGMAPRPSLAKKQRFRHRNRKGYRSQRGHSRGRNQN")
"G"
>>> readout_value("RCP-2: recombinant polypeptide for culture, SEQ ID NO: 16; vitronectin positions 1-55 and 342-373 (protein, Vitronectin-derived Recombinant Protein (RCP-2)) MDQESCKGRCTEGFNVDKKCQCDELCSYYQSCCTDYTAECKPQVTRGDVFTMPEDEPRPSLAKKQRFRHRNRKGYRSQRGHSRGRNQN")
"G"
